# tested on: NRAS Q61K (Homo sapiens (Human), UniProt P01111+P62937, Q61K)
# Sequence (P01111 whole entry Q61K): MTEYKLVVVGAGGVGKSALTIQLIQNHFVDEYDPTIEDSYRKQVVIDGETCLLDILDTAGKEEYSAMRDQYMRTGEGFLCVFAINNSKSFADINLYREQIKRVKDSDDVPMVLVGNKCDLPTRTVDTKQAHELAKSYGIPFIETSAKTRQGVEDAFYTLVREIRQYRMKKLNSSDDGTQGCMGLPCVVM
# Sequence (P62937 whole entry): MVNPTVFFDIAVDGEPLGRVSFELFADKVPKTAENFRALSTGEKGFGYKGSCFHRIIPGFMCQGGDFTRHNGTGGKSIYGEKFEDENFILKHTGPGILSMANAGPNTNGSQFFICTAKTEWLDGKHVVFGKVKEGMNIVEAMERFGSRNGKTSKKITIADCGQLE
# assay: Ras-Raf (BRAF RBD) disruption / FRET / MOA assay, NRAS Q61K
# Assay type: biochemical
# test parameters: NRAS Q61K; Ras-Raf disruption/FRET/MOA assay; read-out: IC50* NRAS Q61K FRET data
Reported IC50 values follow for various compounds
attribute measured: IC50

INSERT INTO measurements (compound, attribute_measured, value_reported) VALUES
  ('CCn1c(-c2cccnc2[C@H](C)OC)c2c3cc(ccc31)-c1cccc(c1)C[C@H](NC(=O)[C@@H](CO[C@@H]1CCN(C(=O)C#CC(C)(C)N(C)C)C1)C(C)C)C(=O)N1CCC[C@H](N1)C(=O)OCC(C)(C)C2 (atropisomer, axis not shown) [Example A584]', 'IC50', '> 10000 nM'),
  ('C=CC(=O)N1CC2(C1)OCCCN2C(=O)N(C)[C@H](C(=O)N[C@H]1Cc2nc(cs2)-c2ccc3c(c2)c(c(-c2cccnc2[C@H](C)OC)n3CC)CC(C)(C)COC(=O)[C@@H]2CCCN(N2)C1=O)C(C)C (atropisomer, axis not shown) [Example A735]', 'IC50', '1000 to 10000 nM'),
  ('C=CS(=O)(=O)N1CC2(CCN([C@H](C(=O)N[C@H]3Cc4cc(O)cc(c4)-c4ccc5c(c4)c(c(-c4cccnc4[C@H](C)OC)n5CC)CC(C)(C)COC(=O)[C@@H]4CCCN(N4)C3=O)C(C)C)C2=O)C1 (atropisomer, axis not shown) [Example A297]', 'IC50', '10 to 100 nM'),
  ('C=CC(=O)N1CC[C@H](C(=O)N(C)[C@H](C(=O)N[C@H]2Cc3csc(n3)-c3ccc4c(c3)c(c(-c3cccnc3[C@H](C)OC)n4CC)CC(C)(C)COC(=O)[C@@H]3CCCN(N3)C2=O)C(C)C)C1 (atropisomer, axis not shown) [Example A330]', 'IC50', '100 to 1000 nM'),
  ('C=CC(=O)N1CC[C@H](C(=O)N(C)[C@H](C(=O)N[C@H]2Cc3nc(cs3)-c3ccc4c(n3)c(c(-c3cccnc3[C@H](C)OC)n4CC)CC(C)(C)COC(=O)[C@@H]3CCCN(N3)C2=O)C(C)C)C1 [Example A347]', 'IC50', '1000 to 10000 nM'),
  ('CO[C@@H](C)c1ncccc1-c1c2c3cc(ccc3n1CC(F)(F)F)-c1csc(n1)C[C@H](NC(=O)[C@@H](COC1CN(C(=O)C#CC(C)(C)N(C)C)C1)C(C)C)C(=O)N1CCC[C@H](N1)C(=O)OCC(C)(C)C2 (atropisomer, axis not shown) [Example A343]', 'IC50', '1000 to 10000 nM'),
  ('CCn1c(-c2cccnc2[C@H](C)OC)c2c3cc(ccc31)-c1cccc(c1)C[C@H](NC(=O)[C@H](C(C)C)N1CC[C@@]3(CCN(C(=O)C#C[C@H]4COCCN4C)C3)C1=O)C(=O)N1CCC[C@H](N1)C(=O)OCC(C)(C)C2 (atropisomer, axis not shown) [Example A551]', 'IC50', '1000 to 10000 nM'),
  ('CCn1c(-c2cccnc2[C@H](C)OC)c2c3cc(ccc31)-c1csc(n1)C[C@H](NC(=O)[C@@H](COC1CN(C(=O)C#CC(C)(C)N(C)C)C1)C(C)C)C(=O)N1CCC[C@H](N1)C(=O)OCC(C)(C)C2 (atropisomer, axis not shown) [Example A721]', 'IC50', '> 10000 nM');
